Provide the reported GI50 of each item.

[Q] Output reported GI50 of the compound C=C(C)[C@@H]1CC[C@]2(C)[C@H](C(=O)C=C3[C@@H]4C[C@](C)(C(=O)N5CCN(C)CC5)CC[C@]4(C)CC[C@]32C)[C@@]1(C)CCC#N on MDA-MB-231 breast.
[A] 7.58 µM

[Q] Return reported GI50 for target or system MDA-MB-231 breast, item COC(=O)c1ccc2c(c1)nc(-c1cc3ccccc3[nH]c1=O)n2-c1cc(C(C)(C)C)[nH]n1 .
[A] 4.13 µM

[Q] Find the measured GI50 of COc1ccc(Nn2c(SCC(=O)Nc3nc(-c4ccc(Cl)cc4)cs3)nc(C)c2C)cc1 with MDA-MB-231 breast as test system.
[A] 8.37 µM

[Q] Write down the reported GI50 (system: MDA-MB-231 breast) of Cc1nc2sccn2c(=O)c1CCN1CCC(=C(c2ccc(F)cc2)c2ccc(F)cc2)CC1
[A] 15.2 µM

[Q] State measured GI50 of the compound O=[N+]([O-])c1ccc(-c2nc(-c3ccccc3)c(-c3ccccc3)n2-c2ccccc2)cc1 with MDA-MB-231 breast.
[A] 2.36 µM

[Q] # return GI50 for CN(C)c1ccc(/C=C(/NC(=O)c2ccccc2)c2nc3ccc(Cl)cc3[nH]2)cc1 , test system: MDA-MB-231 breast
[A] 28.4 µM

[Q] # return GI50 for COc1ccc(NC(=O)n2nc(N)c3ccccc32)cc1OC , test system: MDA-MB-231 breast
[A] 53.6 µM

[Q] Write down measured GI50 (MDA-MB-231 breast) for this compound. O=C1C(Br)=CC2(C=C1Br)CCN=c1c2c(O)c2nc3ccccc3c3ccnc1c23
[A] 3.59 µM

[Q] Please report the measured GI50 for CCCCCCCC/C=C/CCCCCCCC1=NCC[N+]1(CCO)CCO tested on MDA-MB-231 breast.
[A] 2.47 µM

====

# Test system: HS 578T breast
# ASSAY_REMARKS: NCI tumour cell line growth inhibition, 48 h
READOUT: TGI (µM)
Reply with just the number (in µM).

[Q] Item CCCCCCCC/C=C/CCCCCCCC1=NCC[N+]1(CCO)CCO : provide TGI
[A] 7.66

[Q] Answer with reported TGI of COc1ccccc1-n1c(-c2cc(O)ccc2C)cn2c3c(=O)[nH]c(=O)n(C)c3nc12
[A] 5.75

[Q] Specify reported TGI for the compound shown: O=C1C(Br)=CC2(C=C1Br)CCN=c1c2c(O)c2nc3ccccc3c3ccnc1c23
[A] 17.1

====

Task for the reader: assign each of the following compounds its reported GI50.
# Tested on: CAKI-1 renal
# ASSAY_REMARKS: NCI tumour cell line growth inhibition, 48 h

[Q] Supply reported GI50 belonging to this compound: COc1cc(C(=O)/C=C/c2cc(C(=O)c3cc(OC)c(OC)c(OC)c3)ccc2OC)ccc1N
[A] 0.669 µM

[Q] State its GI50 for this compound: CC(C)CCOc1ccc(-c2n[nH]c(C(F)(F)F)c2-c2cncc(C#N)c2)c(O)c1
[A] 3.17 µM

[Q] Determine from records and report GI50 for COc1ccccc1-n1c(-c2cc(O)ccc2C)cn2c3c(=O)[nH]c(=O)n(C)c3nc12
[A] 2.95 µM

[Q] Supply GI50 value. Item: COc1ccc(-c2ccc(/C=N/n3c(COc4ccccc4Cl)nn(CN4CCN(C)CC4)c3=S)o2)c([N+](=O)[O-])c1
[A] 5.19 µM

====

So I've got a bunch of compounds here, and I need their TGI values.
# Test system: SN12C renal
# ASSAY_REMARKS: NCI tumour cell line growth inhibition, 48 h

[Q] Give the measured TGI for COc1ccc2nc3ccc(OC)cc3c(S(=O)(=O)Cc3ccc([N+](=O)[O-])cc3)c2c1
[A] > 100 µM

[Q] Return TGI (reported value) for this compound: COc1cc(/C=C/c2cc(/C=C/c3ccc(O)c(OC)c3)n(-c3c(C)cccc3C)c(=O)n2)ccc1O
[A] > 100 µM

[Q] Supply measured TGI of Cc1cn(C2CCC(/C=N\O)O2)c(=O)[nH]c1=O (stereo unspecified) in your reply.
[A] > 100 µM

[Q] Please list TGI recorded for the compound Cc1ccc(C2NC(=S)NC3=C2CCOc2c3ccc3ccccc23)cc1 (stereo unspecified)
[A] > 100 µM

[Q] Entry O=P(O)(O)c1ccccc1 (tested in a mixture with another compound) needs its TGI filled in; supply it.
[A] > 100 µM

[Q] Please give measured TGI of the following entry: CCOC(=O)c1c(C)c2c(n1C)CCc1cn[nH]c1-2
[A] > 100 µM

[Q] Output TGI of O=C(CO)CC(=O)C(=O)Nc1nc([N+](=O)[O-])cs1
[A] > 100 µM

[Q] State its TGI for this compound: Cn1c2c(c3ccccc31)C1CCCCC1C1C(=O)NC(=O)C21 (stereo unspecified)
[A] > 100 µM

[Q] Report TGI for CCCCn1c(C)c(C(=O)OCC)s/c1=N/Nc1nc2ccccc2nc1-c1ccccc1
[A] > 100 µM

[Q] Look up and report measured TGI for this entry: N#Cc1c(-c2ccc([N+](=O)[O-])cc2)cc(-c2ccc(Nc3ccnc4cc(C(F)(F)F)ccc34)cc2)nc1N
[A] 46.6 µM

[Q] Complete the entry with TGI for CC1(C)N=C(C(N)=O)c2ncn(-c3ccccc3)c2N1
[A] > 100 µM

[Q] Quote TGI reported for CC1(c2nc3cc(Cl)c(Cl)cc3[nH]2)CCC(CO)C(C)(C)O1 (stereo unspecified) please.
[A] > 100 µM

[Q] Answer with the recorded TGI for the compound listed here: CC(C)C1(C)N=C(C(F)(F)F)c2cc(C(=O)C(F)(F)F)c3ccccc3c2N1 (stereo unspecified)
[A] 11 µM

[Q] // Input: NS(=O)(=O)c1cc2c(cc1Cl)NC(Cc1ccccc1)NS2(=O)=O (stereo unspecified) . Output its TGI only.
[A] > 100 µM

[Q] Answer with reported TGI of COc1ccc2oc3c4c2c1CCC4CCC3=O (stereo unspecified)
[A] > 100 µM

[Q] // Input: COc1cc(CCCOC(=O)/C=C/c2ccc(O)c(O)c2)cc(O)c1O . Output its TGI only.
[A] > 100 µM

[Q] Output measured TGI for this item: COC(=O)C1=C(C(=O)OC)C2(OC(C)=O)c3ccccc3-c3ccccc3C12 (stereo unspecified)
[A] 9.28 µM

[Q] Give the reported TGI for this compound. COc1ccc(C2SCC(=O)N2c2ccc(-n3c(-c4ccccc4)nc4ccccc4c3=O)cc2)cc1OC (stereo unspecified)
[A] > 100 µM

[Q] Input O=C(OCc1ccccc1)N1CCN(/[N+]([O-])=N/Oc2ccc([N+](=O)[O-])cc2[N+](=O)[O-])CC1 , output reported TGI.
[A] 30.1 µM

[Q] Quote TGI reported for COc1ccc(/C=C2\CCCCC2=O)cc1 please.
[A] > 100 µM

[Q] For the compound O=C1Nc2cccc(Cl)c2/C1=C\c1c(Cl)nc2sccn12 , give its reported TGI.
[A] > 100 µM

====

# Test system: 786-0 renal
# ASSAY_REMARKS: NCI tumour cell line growth inhibition, 48 h
READOUT: TGI

[Q] Return TGI for the following compound: C[C@]12CCC[C@H](Cl)C1(O)C[C@H](C(=O)O)CC2 (some centres undefined)
[A] > 100 µM

[Q] Please give measured TGI of the following entry: CC(C)[C@@]12C[C@@H](OC(=O)[C@H]3CO3)[C@@](C)(O1)[C@@H]1CC[C@@H](C)[C@H]1[C@@H]2OC(=O)/C=C/c1ccccc1
[A] 22 µM

[Q] Give reported TGI value for COc1ccc(N=C(C)c2ccncc2)cc1
[A] > 100 µM

[Q] Please report the measured TGI for C1CCN(CCC2CCCCN2)CC1 (centres undefined)
[A] > 100 µM

[Q] Identify TGI associated with the compound N#CCCN(CCC#N)c1ccc(C(N=Nc2ccccc2)=Nc2ccccc2)cc1
[A] > 100 µM

[Q] Give a short answer stating reported TGI for CCCCCCCCCCCCCCCCCC1=NCCN1CS(=O)(=O)O .
[A] 35.3 µM

[Q] Please list TGI recorded for the compound CC1=C2C(=O)[C@H]3[C@@H](CC=C4C[C@@H](O)CC[C@@]43C)[C@@H]2CC[C@]12O[C@@H]1C[C@H](C)CN[C@H]1[C@H]2C
[A] > 57.5 µM

[Q] For the compound COc1ccc(/C=C2\C[C@H]3[C@@H]4CCC5=C[C@@H](N6CCCC6)CC[C@]5(C)[C@H]4CC[C@]3(C)[C@H]2O)cc1 , report TGI.
[A] 2.94 µM

[Q] Determine its reported TGI: COc1ccc(C2=NNC(=O)OC2c2ccccc2)cc1 (centres undefined)
[A] > 100 µM

[Q] Provide one value: measured TGI of COC1(OC)CC2C=C(S(=O)(=O)c3ccccc3)C1N(Cc1ccccc1)C2=O (centres undefined)
[A] > 100 µM

[Q] Please supply the value of reported TGI for the item N/N=C1\C(=O)N(C2CCCCC2)C(=O)C1C(=O)NC1CCCCC1 (centres undefined)
[A] > 100 µM

[Q] // fetch TGI given entry CC(C)CCOc1ccc(-c2n[nH]c(C(F)(F)F)c2-c2cncc(C#N)c2)c(O)c1
[A] 13.1 µM

[Q] Output measured TGI for this item: CN(C)c1ccc(/C=C(/NC(=O)c2ccccc2)c2nc3ccc(Cl)cc3[nH]2)cc1
[A] > 100 µM

[Q] // Input: N#Cc1c(-c2ccc([N+](=O)[O-])cc2)cc(-c2ccc(Nc3ccnc4cc(C(F)(F)F)ccc34)cc2)nc1N . Output its TGI only.
[A] 15.6 µM

[Q] Retrieve TGI measured for CSc1nc(-c2cc3c(c(SC)n2)CCCCC3)cc2c1CCCCC2 and print it.
[A] > 100 µM

[Q] Quickly give me recorded TGI for O=S(O)CCCCCSSCCCCSSCCCCCS(=O)O
[A] > 100 µM

[Q] Tell me TGI reported for CC(=O)C1CC=C(C)CC1 (centres undefined)
[A] > 100 µM

[Q] Return TGI (reported value) for this compound: Cc1ccc(S(=O)(=O)NN=C2CCCCCCCCCCC2)cc1
[A] > 100 µM

[Q] Indicate its recorded TGI; the compound in question is C=C(C)[C@@H]1CC[C@]2(C)[C@H](C(=O)C=C3[C@@H]4C[C@](C)(C(=O)N5CCN(C)CC5)CC[C@]4(C)CC[C@]32C)[C@@]1(C)CCC#N
[A] 13.7 µM

[Q] Supply TGI value. Item: O=C(O)C1CCCN1Cc1cc2ccccc2c2ccccc12 (centres undefined)
[A] > 100 µM

[Q] Could you please provide reported TGI for CC[C@H]1CN2CCc3cc(OC)c(OC)cc3[C@@H]2C[C@@H]1C[C@H]1NCCc2cc(O)c(OC)cc21 ? Thanks!
[A] 0.0381 µM

[Q] Item CC1OC(OC2C(O[C@H]3CC[C@@]4(C)[C@@H](CC[C@@H]5[C@@H]4CC[C@]4(C)[C@@H]6[C@H](C[C@@H]54)O[C@]4(CC[C@@H](C)CO4)[C@H]6C)C3)OC(CO)C(OC3OC(CO)C(O)C(OC4OCC(O)C(O)C4O)C3OC3OCC(O)C(O)C3O)C2O)C(O)C(O)C1O (some centres undefined) : provide TGI
[A] 3.02 µM

[Q] Give TGI for the following compound: O=C(CC(=O)N1N=C(N2CCCCC2)CC1c1ccccc1)Nc1ccc(Cl)cc1 (centres undefined)
[A] > 100 µM

[Q] Query TGI for COc1ccc(-c2ccc(/C=N/n3c(COc4ccccc4Cl)nn(CN4CCN(C)CC4)c3=S)o2)c([N+](=O)[O-])c1
[A] 39.3 µM

[Q] Please give the documented TGI of Cc1ccc(C2NC(=S)NC3=C2CCOc2c3ccc3ccccc23)cc1 (centres undefined)
[A] > 100 µM

[Q] Output TGI of Cc1ccc(-c2nc(SCC(=O)O)n[nH]2)cc1
[A] > 100 µM

[Q] Identify TGI associated with the compound N#CC(C(=O)/C(=N\Nc1nc(=S)[nH]n1N)C(C#N)c1ccc(Cl)cc1)c1ccc(Cl)cc1 (centres undefined)
[A] > 100 µM

[Q] Read off the recorded TGI for CSC(C1c2ccccc2N(C)C2=NC(=O)N(C)C(=O)C21Cl)S(=O)(=O)c1ccc(C)cc1 (centres undefined)
[A] 33.2 µM

[Q] Could you please provide reported TGI for Cn1c(=O)cc(NCc2ccc(Cl)cc2)[nH]c1=O ? Thanks!
[A] > 100 µM

[Q] Supply recorded TGI for Cc1cn(C2CCC(/C=N\O)O2)c(=O)[nH]c1=O (centres undefined) here.
[A] > 100 µM

[Q] Fill in reported TGI for this entry: O=C1C(Br)=CC2(C=C1Br)CCN=c1c2c(O)c2nc3ccccc3c3ccnc1c23
[A] 2.37 µM

[Q] Complete the entry with TGI for O=[N+]([O-])c1cccc2nc3ccccc3c(NCCc3cccc[n+]3[O-])c12
[A] 0.249 µM

[Q] Kindly indicate its recorded TGI. Item: CC(C)NC(=O)CN1CCN(C2=CC(=O)c3c(O)ccc(O)c3C2=O)CC1
[A] 42.4 µM

[Q] Please supply the value of reported TGI for the item COc1cc(CCCOC(=O)/C=C/c2ccc(O)c(O)c2)cc(O)c1O
[A] > 100 µM

[Q] Give the measured TGI for CCC[CH2][Sn]([CH2]CCC)([O]C(=O)c1cc(F)cc(F)c1)[O]C(=O)c1cc(F)cc(F)c1
[A] 2.49 µM

[Q] Please report TGI for the following compound: NC(=O)N1N=C2c3ccccc3CC[C@@H]2C1c1ccccc1 (some centres undefined)
[A] > 100 µM

[Q] Input OCCCN=NNc1ccc(-c2nc3ccccc3[nH]2)cc1 , output reported TGI.
[A] 46.7 µM

[Q] Report TGI for CC(=O)C(=[N+]=[N-])C(=O)OC(C)(C)C#N
[A] > 10 µM

[Q] Given the compound O=C1OCC(c2cccs2)=C1Cl , write its reported TGI.
[A] > 100 µM

Cited source: PubChem BioAssay (NCI)
